Test system: IgE antibodies from patients
Assay: Wheat epitope mapping (2): overlapping 10-amino-acid peptide fragments shifted by one amino acid;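 for Rank of partial sequence as epitope binding to IgE antibody: key = sequence deemed particularly important within the common 15-residue sequence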
Format: binding, human
Details: serum of patient P20 (WDEIA); sequence without X
observable: Rank of partial sequence as epitope binding to IgE antibody

q: Bench note: what Rank of partial sequence as epitope binding to IgE antibody did 1695 (EAANFT; REGION 1..6: note = epitope) [compound 1695] show?
a: Key

q: Bench note: what Rank of partial sequence as epitope binding to IgE antibody did 1617 (VPFVPISG; REGION 1..8: note = epitope) [compound 1617] show?
a: Preferably

q: Bench note: what Rank of partial sequence as epitope binding to IgE antibody did 1582 (FPQTQQPQ; REGION 1..8: note = epitope) [compound 1582] show?
a: Preferably

q: Bench note: what Rank of partial sequence as epitope binding to IgE antibody did 1618 (FVPISG; REGION 1..6: note = epitope) [compound 1618] show?
a: Key

---

Tested on: IgE antibodies from patients
Test: Wheat epitope mapping (2): overlapping 10-amino-acid peptide fragments shifted by one amino acid;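 for epitope sequence binding to IgE antibody, rank (Key/Preferably/More preferably): key of grades: preferably = shorter partial sequence still acting as epitope; more preferably = sequence improving IgE binding; key = particularly important sequence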
Assay type: binding, human
Conditions: serum of patient P19 (WDEIA)
Method: The peptides to be synthesized were shifted by one amino acid. The library was prepared by the same procedure as described above in (A), and the presence or absence of binding of an IgE antibody present in the serum of a patient to each peptide fragment was measured by the same technique as described above. […]
observable: epitope sequence binding to IgE antibody, rank (Key/Preferably/More preferably)

Below, each entry is followed by its recorded epitope sequence binding to IgE antibody, rank (Key/Preferably/More preferably) result.
q: For IgE antibodies from patients, provide epitope sequence binding to IgE antibody, rank (Key/Preferably/More preferably) of 1937 (QQFPGQQQ; REGION 1..8: note = epitope) [compound 1937] please.
a: Preferably

q: For IgE antibodies from patients, provide epitope sequence binding to IgE antibody, rank (Key/Preferably/More preferably) of 1936 (QVPLVQQ; REGION 1..7: note = epitope) [compound 1936] please.
a: Key

q: For IgE antibodies from patients, provide epitope sequence binding to IgE antibody, rank (Key/Preferably/More preferably) of 1859 (YTVRTLQR; REGION 1..8: note = epitope) [compound 1859] please.
a: Preferably

q: For IgE antibodies from patients, provide epitope sequence binding to IgE antibody, rank (Key/Preferably/More preferably) of 1860 (TVRTLQ; REGION 1..6: note = epitope) [compound 1860] please.
a: Key

Switching to the query record.
q: For IgE antibodies from patients, provide epitope sequence binding to IgE antibody, rank (Key/Preferably/More preferably) of 1938 (QFPGQQ; REGION 1..6: note = epitope) [compound 1938] please.
a: Key

---

System: IgE antibodies from patients
Assay: Wheat epitope mapping (2): overlapping 10-amino-acid peptide fragments shifted by one amino acid
Assay type: binding, human
Settings: serum of patient P31 (WDEIA); partial sequence
observable: Epitope sequence binding to IgE antibody, rank of the sequence

Below, each entry is followed by its recorded Epitope sequence binding to IgE antibody, rank of the sequence result.
q: Bench note: what Epitope sequence binding to IgE antibody, rank of the sequence did 2584 (QLVQ; REGION 1..4: note = epitope) [compound 2584] show?
a: Key

q: Bench note: what Epitope sequence binding to IgE antibody, rank of the sequence did 2740 (KIGGI; REGION 1..5: note = epitope) [compound 2740] show?
a: Key

q: Bench note: what Epitope sequence binding to IgE antibody, rank of the sequence did 2583 (QLVQQ; REGION 1..5: note = epitope) [compound 2583] show?
a: Preferably

q: Bench note: what Epitope sequence binding to IgE antibody, rank of the sequence did 2652 (KEAAEM; REGION 1..6: note = epitope) [compound 2652] show?
a: Preferably

q: Bench note: what Epitope sequence binding to IgE antibody, rank of the sequence did 2739 (YKIGGIG; REGION 1..7: note = epitope) [compound 2739] show?
a: Preferably

q: Bench note: what Epitope sequence binding to IgE antibody, rank of the sequence did 2741 (GIGTVPVGRV; REGION 1..10: note = epitope) [compound 2741] show?
a: Key

Switching to the query record.
q: Bench note: what Epitope sequence binding to IgE antibody, rank of the sequence did 2653 (EAAE; REGION 1..4: note = epitope) [compound 2653] show?
a: Key

---

System: IgE antibodies from patients
Test: Wheat epitope mapping (2): overlapping 10-amino-acid peptide fragments shifted by one amino acid;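 for epitope sequence binding to IgE antibody, rank (Key/Preferably/More preferably): key of grades: preferably = shorter partial sequence still acting as epitope; more preferably = sequence improving IgE binding; key = particularly important sequence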
Type: binding, human
Conditions: serum of patient P18 (WDEIA)
observable: epitope sequence binding to IgE antibody, rank (Key/Preferably/More preferably)

Below, each entry is followed by its recorded epitope sequence binding to IgE antibody, rank (Key/Preferably/More preferably) result.
q: Bench note: what epitope sequence binding to IgE antibody, rank (Key/Preferably/More preferably) did 1858 (RTLQ; REGION 1..4: note = epitope) [compound 1858] show?
a: Key

q: Bench note: what epitope sequence binding to IgE antibody, rank (Key/Preferably/More preferably) did 1803 (SGKELE; REGION 1..6: note = epitope) [compound 1803] show?
a: Key

q: Bench note: what epitope sequence binding to IgE antibody, rank (Key/Preferably/More preferably) did 1802 (SGKELEALPK; REGION 1..10: note = epitope) [compound 1802] show?
a: Preferably

q: Bench note: what epitope sequence binding to IgE antibody, rank (Key/Preferably/More preferably) did 1857 (TVRTLQR; REGION 1..7: note = epitope) [compound 1857] show?
a: Preferably

Switching to the query record.
q: Bench note: what epitope sequence binding to IgE antibody, rank (Key/Preferably/More preferably) did 1804 (KFLKN; REGION 1..5: note = epitope) [compound 1804] show?
a: Key

---

Tested on: IgE antibodies from patients
Test: Wheat epitope mapping (2): overlapping 10-amino-acid peptide fragments shifted by one amino acid
Assay type: binding, human
Settings: serum of patient P36 (WDEIA); partial sequence
observable: Epitope sequence binding to IgE antibody, rank of the sequence

q: Bench note: what Epitope sequence binding to IgE antibody, rank of the sequence did 2595 (VQQL; REGION 1..4: note = epitope) [compound 2595] show?
a: Key

q: Bench note: what Epitope sequence binding to IgE antibody, rank of the sequence did 2695 (YKGPTL; REGION 1..6: note = epitope) [compound 2695] show?
a: Key

q: Bench note: what Epitope sequence binding to IgE antibody, rank of the sequence did 2512 (SQVSF; REGION 1..5: note = epitope) [compound 2512] show?
a: Key

---

System: IgE antibodies from patients
Assay: Wheat epitope mapping (2): overlapping 10-amino-acid peptide fragments shifted by one amino acid;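 for Rank of partial sequence as epitope binding to IgE antibody: key = sequence deemed particularly important within the common 15-residue sequence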
Assay type: binding, human
Settings: serum of patient G6 (adult, general immediate type allergy to wheat); sequence without X
observable: Rank of partial sequence as epitope binding to IgE antibody

q: For IgE antibodies from patients, provide Rank of partial sequence as epitope binding to IgE antibody of 1681 (DKVPF; REGION 1..5: note = epitope) [compound 1681] please.
a: Preferably

q: For IgE antibodies from patients, provide Rank of partial sequence as epitope binding to IgE antibody of 1494 (YLQPQQPISQ; REGION 1..10: note = epitope) [compound 1494] please.
a: Preferably

q: For IgE antibodies from patients, provide Rank of partial sequence as epitope binding to IgE antibody of 1495 (YLQPQQPI; REGION 1..8: note = epitope) [compound 1495] please.
a: Key

---

Tested on: IgE antibodies from patients
Test: Wheat epitope mapping (2): overlapping 10-amino-acid peptide fragments shifted by one amino acid
Assay type: binding, human
Details: serum of patient P32 (WDEIA); partial sequence
observable: Epitope sequence binding to IgE antibody, rank of the sequence

Below, each entry is followed by its recorded Epitope sequence binding to IgE antibody, rank of the sequence result.
q: Bench note: what Epitope sequence binding to IgE antibody, rank of the sequence did 2655 (EAAEMNK; REGION 1..7: note = epitope) [compound 2655] show?
a: Preferably

q: Bench note: what Epitope sequence binding to IgE antibody, rank of the sequence did 2585 (LQQSTYQLVQ; REGION 1..10: note = epitope) [compound 2585] show?
a: Preferably

q: Bench note: what Epitope sequence binding to IgE antibody, rank of the sequence did 2619 (LASLSK; REGION 1..6: note = epitope) [compound 2619] show?
a: Key

q: Bench note: what Epitope sequence binding to IgE antibody, rank of the sequence did 2586 (LQQSTYQL; REGION 1..8: note = epitope) [compound 2586] show?
a: Key

q: Bench note: what Epitope sequence binding to IgE antibody, rank of the sequence did 2587 (QLVQQLCC; REGION 1..8: note = epitope) [compound 2587] show?
a: Preferably

More entries:
q: Bench note: what Epitope sequence binding to IgE antibody, rank of the sequence did 2588 (QQLC; REGION 1..4: note = epitope) [compound 2588] show?
a: Key
